System: RXF 393 renal
EXPERIMENT_NOTES: NCI tumour cell line growth inhibition, 48 h; in the data active = GI50 below about 0.43 µM; inactive = the rest
Use one of these outcomes when replying: active, inactive

Which outcome was entered for the compound O=[N+]([O-])c1ccc(N/N=C\c2cc(Br)ccc2O)nc1 in this test?
inactive

Could you please tell me the result logged for COc1cc(/C=C/c2cc(/C=C/c3ccc(O)c(OC)c3)n(C(=O)Nc3ccc(C)cc3)n2)ccc1O in this assay?
active

// return assay outcome for Oc1c(Br)cc(Cl)cc1C(c1cc(Cl)cc(Br)c1O)C(Cl)(Cl)Cl
inactive

How was CCCCCCCCCCN=C(N)c1ccc(N2CCN(c3ccc(C(N)=NCCCCCCCCCC)cc3)CC2)cc1 classified in this test?
inactive

Further cases:
Please share the test call associated with Cn1cc(-c2ccc3c(c2)ncn3-c2cc(NS(=O)(=O)C3CC3)cc(-c3ccc(F)cc3F)c2)cn1 .
inactive

====

Item-by-item account of GI50
Test system: NCI-H23 lung
EXPERIMENT_NOTES: NCI tumour cell line growth inhibition, 48 h

The cases that follow already have their GI50 on record.
State GI50 on NCI-H23 lung. Entry: OCc1ccc(N2CCc3ccc(F)cc3C2)cc1Cl
1.86 µM

Report GI50 on NCI-H23 lung for this entry: OC[C@H]1C[C@](O)(c2ccc(F)cc2)[C@@H](c2ccc(F)cc2)O1
> 100 µM

Name the value of GI50 reported for O=C1NC(=NCc2cccs2)O/C1=C\c1ccc2ncccc2c1 when tested on NCI-H23 lung.
7.9 µM

Look up and report GI50, with NCI-H23 lung as system, for CC(=O)O[C@H]1C[C@@H]2[C@@]3(C)CC[C@H]4C[C@@]4(C)[C@@H]3CC[C@@]2(C)C2=CCC3=C(COC3=O)[C@]21C
20.1 µM

More entries:
Give GI50; test system NCI-H23 lung; compound CN(C)CCCC1(c2ccc(F)cc2)OCc2cc(-c3csc4ccccc34)ccc21 (stereo not given)
1.55 µM

Under NCI-H23 lung, report GI50 for O=C(/C=C(\[O-])c1ccccc1)CCCCCCC(=O)/C=C(\[O-])c1ccccc1.O=C(/C=C(\[O-])c1ccccc1)CCCCCCC(=O)/C=C(\[O-])c1ccccc1.O=C(/C=C(\[O-])c1ccccc1)CCCCCCC(=O)/C=C(\[O-])c1ccccc1.[Y+3].[Y+3]
13.4 µM

Look up and report GI50, with NCI-H23 lung as system, for CN(C)[C@@H]1C(=O)C(C(=O)NCc2nc3[nH]cnc(=S)c3[nH]2)=C(O)[C@@]2(O)C(=O)C3=C(O)c4c(O)cccc4[C@@](C)(O)[C@H]3C[C@@H]12
8.85 µM

Under NCI-H23 lung: report GI50 of O=C(O)CSc1cc(NS(=O)(=O)c2ccc(Br)cc2)c2ccccc2c1O .
7.25 µM

# lookup: NCI-H23 lung GI50, key = COc1cc2c(Oc3ccc(-c4cnc(Nc5ccc(F)cc5)n(C)c4=O)cc3F)ccnc2cc1OCCCN1CCOCC1
1.15 µM

Give measured GI50 for COc1cc2c(cc1OCCN1CCN(CCN3C(=O)c4cccc5cccc(c45)C3=O)CC1)N=C[C@@H]1CCCN1C2=O (NCI-H23 lung).
13 µM

State GI50 on NCI-H23 lung. Entry: CC1=C(C(=O)Nc2ccc3[nH]ncc3c2)C(c2ccc(F)cc2)N=C(c2ccc(C(F)(F)F)nc2)N1 (stereo not given)
12.8 µM

Report the value of GI50 obtained on NCI-H23 lung for CCOC(=O)C#Cc1c(C(=O)OCC)nnn1[C@@H]1O[C@H](COC)[C@@H](OC)[C@H]1OC .
12.3 µM

Output reported GI50 of the compound O=[N+]([O-])c1ccc(N/N=C\c2cc(Br)ccc2O)nc1 on NCI-H23 lung.
1.23 µM

Fill: GI50 (NCI-H23 lung) for this compound C=CCN(CC=C)Cc1c[nH]c2ccccc12
14 µM

Check NCI-H23 lung data and give GI50 for COc1ccc([C@@H]2[C@@H](Oc3ccccc3)C(=O)N2c2cc(OC)c(OC)c(OC)c2)cc1F .
0.7 µM

====

Recorded TGI by entry
Tested on: BT-549 breast
EXPERIMENT_NOTES: NCI tumour cell line growth inhibition, 48 h

Look up TGI of CC1=C(C(=O)Nc2ccc3[nH]ncc3c2)C(c2ccc(F)cc2)N=C(c2ccc(C(F)(F)F)nc2)N1 (stereo not drawn) and report it.
18.2 µM

Further cases:
Please look at this molecule and report its TGI: CN(C)c1ccc(/C=N/N=C(\C#N)[S][Sn]([Cl])([c]2ccccc2)[c]2ccccc2)cc1
3.04 µM

Please give the documented TGI of COc1ccc(/C=C2\C[C@H]3[C@@H]4CC=C5C[C@@H](O)CC[C@]5(C)[C@H]4CC[C@]3(C)\C2=N\O)cc1
36.5 µM

Look up and state reported TGI for NS(=O)(=O)c1c(O)c2ccccc2oc1=O
> 100 µM

====

Test system: NCI-H226 lung
EXPERIMENT_NOTES: NCI tumour cell line growth inhibition, 48 h
QUANTITY_KIND: TGI

Known results for molecules:
Supply TGI measured with NCI-H226 lung for CN(Cc1cccc2ccsc12)/N=C\c1ccc(Cl)cc1 .
> 100 µM

Tell me its TGI on NCI-H226 lung: COc1ccc(C(C)Nc2cc(OC)c(OC)c(OC)c2)cc1 (stereo not given)
> 100 µM

Give TGI for COC(=O)/C(=N\N)C(C(=O)C(=O)Nc1cc(Cl)ccc1Cl)c1nc2ccc([N+](=O)[O-])cc2[nH]c1=O (stereo not given) tested on NCI-H226 lung.
> 100 µM

Write down measured TGI (NCI-H226 lung) for this molecule. NC(CCC(=O)O)C(=O)NC(Cc1ccc(N(CCCl)CCCl)cc1)C(=O)O (stereo not given)
> 100 µM

Kindly consider the entry below.
Report its TGI with NCI-H226 lung as the test system: Cc1[nH]c(=O)c2oc3cc4ccccc4cc3c2c1C(=O)O
> 10 µM

====

System: OVCAR-3 ovarian
EXPERIMENT_NOTES: NCI tumour cell line growth inhibition, 48 h
TGI values by entry

Consider the worked cases shown below.
Note TGI for the compound shown: COC(=O)N/N=C(\C)c1sc(-c2nc(C)c(/C(C)=N/NC(=O)OC)s2)nc1C
> 100 µM

Give TGI for the following compound: CN1S(=O)(=O)N(C)P12(N=P(CP(=NP13(N(C)S(=O)(=O)N1C)N(C)S(=O)(=O)N3C)(c1ccccc1)c1ccccc1)(c1ccccc1)c1ccccc1)N(C)S(=O)(=O)N2C
> 100 µM

Report TGI, nothing else, for this compound: COc1cc(/C=C/c2cc(/C=C/c3ccc(O)c(OC)c3)n(C(=O)Nc3ccc(C)cc3)n2)ccc1O
1.99 µM

Given the compound Cc1cccc(C)c1NC(=O)C(=O)CC(=O)c1sc(Nc2c(C)cccc2C)nc1C , write its reported TGI.
> 100 µM

Consider the compound O=C1C(Cl)=CC2(C=C1Cl)CCN=c1c(O)c3c(c(O)c12)=NC=N3 and give its recorded TGI.
89.1 µM

Quick one: give measured TGI for Cc1ccccc1NC(=O)C1C(=O)N(c2ccccc2C)C(=O)/C1=N\NC(N)=O (centres undefined)
> 100 µM

Quick one: give measured TGI for COC(=O)C1CC2CC1C1C2SC(F)(F)C1(F)F (centres undefined)
> 100 µM

Given C/C(=C\c1ccccc1)C(O)C(=O)c1nc2ccc(Cl)cc2[nH]c1=O (centres undefined) , respond with its TGI.
> 100 µM

Now examine the next entry.
Please indicate TGI recorded for N#CC1=C(S)N(C2OC(CO)C(O)C(O)C2O)C(c2ccccc2)=CC1c1ccco1 (centres undefined)
> 100 µM

====

System: MCF7 breast
EXPERIMENT_NOTES: NCI tumour cell line growth inhibition, 48 h
QUANTITY_KIND: TGI (µM)
Enter your answer as a number in µM; do not include the unit.

Here is how some molecules turned out for TGI.
Please report TGI with MCF7 breast for item COC(=O)C(C)NP(=O)(OCc1cccc(Cn2cnc3c(N)ncnc32)c1)Oc1ccccc1 (centres undefined) .
66.6

# return TGI of C[C@H]1CCC/C=C/[C@@H]2C[C@H](OC(=O)CN(C)C)C[C@H]2[C@H](O)/C=C/C(=O)O1 (system: MCF7 breast)
4.31

Output reported TGI of the molecule O=C(CCN1CCOCC1)Nc1ccc(Cn2nnc3c2C(=O)c2nnn(Cc4ccc(NC(=O)CCN5CCOCC5)cc4)c2C3=O)cc1 on MCF7 breast.
0.978

---
Please look at CNCc1cccc2c1OCCOCCOCCNS(=O)(=O)c1ccc(cc1)-c1cnc(N)c(n1)C(=O)N2 and tell me its recorded TGI on MCF7 breast.
5.11

Answer with TGI of O=C1[C@H](Cc2ccc(O)cc2)N2C(=O)CCN(C(=O)NCc3ccccc3)[C@H]2CN1Cc1cccc2ccccc12 measured for MCF7 breast.
39

Look up and report TGI, with MCF7 breast as system, for Nc1nccc(NCC2(CO)CC(CCc3ccccc3)C2)n1 (centres undefined)
22.2

Report value: TGI, system: MCF7 breast, molecule: COc1ccccc1CNCCCN1C(=O)c2ccc3c4c(ccc(c24)C1=O)C(=O)N(CCCNCc1ccccc1OC)C3=O
0.329

Jot down TGI (MCF7 breast) of COc1cc(/C=C/c2cc(/C=C/c3ccc(O)c(OC)c3)n(C(=O)Nc3ccc(C)cc3)n2)ccc1O .
2.97
